target: T1, catalytic domain of MMP-14 (cdMMP-14) (human, UniProt P50281 114-287, limits assumed, biotinylated (Sulfo-NHS-LC-Biotin) where immobilised via streptavidin); assay: ELISA, Fab titrated on immobilised MMP-14 catalytic domain, anti-Fab-HRP
T1 construct: also called matrix metalloproteinase-14 catalytic domain; wild-type MMP-14
Below is a list of entries, each paired with its recorded pEC50 value.
pEC50 is defined as minus the log10 of a concentration measured in mol/L.

binder	pEC50
Fab 32C11 (Fab, V domains shown, also called R3C7; not shown: His tag at the C-terminus of the heavy chain) VH: EVQLVESGGGLVQPGGSLRLSCAASGFNLYYSSIHWVRQAPGKGLEWVASISSYSSYTYYADSVKGRFTISADTSKNTAYLQMNSLRAEDTAVYYCAREIHMLSRQARYLRDGRRPRGSMYVMDYWGQGTLVTVSS VL: DIQMTQSPSSLSASVGDRVTITCRASQSVSSAVAWYQQKPGKAPKLLIYSASSLYSGVPSRFSGSRSGTDFTLTISSLQPEDFATYYCQQYGAGLITFGQGTKVEIKR	7.54

# ---- query binder ----
Item: Fab 3E9 (Fab, V domains shown, not shown: His tag at the C-terminus of the heavy chain) VH: EVQLVESGGGLVQPGGSLRLSCAASGFNLYYSSMHWVRQAPGKGLEWVASIYPSYGSTYYADSVKGRFTISADTSKNTAYLQMNSLRAEDTAVYYCARNGRYPGFLKRAHKRLLNFKAYVMDYWGQGTLVTVSS VL: DIQMTQSPSSLSASVGDRVTITCRASQSVSSAVAWYQQKPGKAPKLLIYSASSLYSGVPSRFSGSRSGTDFTLTISSLQPEDFATYYCQQGSWYLITFGQGTKVEIKR | pEC50: 7.29

Data origin: patent US20190185581A1
